test system: A. baumannii; experiment: Broth dilution MIC determination (CLSI) against A. baumannii strains; assay type: cell-based; details: Acinetobacter baumannii, imipenem-resistant; read-out: MIC A. baumannii imipenem-resistant
quantity-name: MIC (µg/mL)
One number for each entry, in µg/mL.

I'd like to know its MIC. The compound in question is CC[C@H]1OC(=O)[C@H](C)C(=O)[C@H](C)[C@@H](O[C@@H]2OC(Cn3cc(-c4cccc(N)n4)nn3)CC(N(C)C)C2O)[C@](C)(OC)C[C@@H](C)CN[C@H](C)[C@H]2N(CCCCn3cc(-c4cccc(N)c4)nn3)C(=O)O[C@]12C (some centres unmarked) [FSM-22124]
16

I'd like to know its MIC. The compound in question is CC[C@H]1OC(=O)[C@H](C)C(=O)[C@H](C)[C@@H](O[C@@H]2OC(CNC(=O)c3ccccn3)CC(N(C)C)C2O)[C@](C)(OC)C[C@@H](C)CN[C@H](C)[C@H]2N(CCCCn3cc(-c4cccc(N)c4)nn3)C(=O)O[C@]12C (some centres unmarked) [FSM-21887]
32

I'd like to know its MIC. The compound in question is CC[C@H]1OC(=O)[C@H](C)C(=O)[C@H](C)[C@@H](O[C@@H]2OC(Cn3cc(-c4ccccn4)nn3)CC(N(C)C)C2O)[C@](C)(OC)C[C@@H](C)CN[C@H](C)[C@H]2N(CCCCn3cc(-c4cccc(N)c4)nn3)C(=O)O[C@]12C (some centres unmarked) [FSM-22111]
16

I would be grateful if you could provide MIC for each of the following entries.
1. C=CCOC(=O)NCC1CC(N(C)C)C(O)[C@H](O[C@@H]2[C@@H](C)C(=O)[C@@H](C)C(=O)O[C@H](CC)[C@@]3(C)OC(=O)N(CCCCn4cc(-c5cccc(N)c5)nn4)[C@@H]3[C@@H](C)NC[C@H](C)C[C@@]2(C)OC)O1 (some centres unmarked) [FSM-21795]
2. CC[C@H]1OC(=O)[C@H](C)C(=O)[C@H](C)[C@@H](O[C@@H]2OC(CNS(=O)(=O)c3cccnc3)CC(N(C)C)C2O)[C@](C)(OC)C[C@@H](C)CN[C@H](C)[C@H]2N(CCCCn3cc(-c4cccc(N)c4)nn3)C(=O)O[C@]12C (some centres unmarked) [FSM-21876]
3. CC[C@H]1OC(=O)[C@@](C)(F)C(=O)[C@H](C)[C@@H](O[C@@H]2O[C@H](C)C[C@H](N(C)C)[C@H]2O)[C@](C)(OC)C[C@@H](C)C(=O)[C@H](C)[C@H]2N(CCCCn3cc(-c4cccc(N)c4)nn3)C(=O)O[C@]12C [Solithromycin, solithromycin, reference compound]
4. CC[C@H]1OC(=O)[C@H](C)C(=O)[C@H](C)[C@@H](O[C@@H]2OC(CNC(=O)c3ccccc3)CC(N(C)C)C2O)[C@](C)(OC)C[C@@H](C)CN[C@H](C)[C@H]2N(CCCCn3cc(-c4cccc(N)c4)nn3)C(=O)O[C@]12C (some centres unmarked) [FSM-21880]
5. CC[C@H]1OC(=O)[C@H](C)[C@@H](O[C@H]2C[C@@](C)(OC)[C@@H](O)[C@H](C)O2)[C@H](C)[C@@H](O[C@@H]2O[C@H](C)C[C@H](N(C)C)[C@H]2O)[C@](C)(O)C[C@@H](C)CN(C)[C@H](C)[C@@H](O)[C@]1(C)O [Azithromycin, azithromycin, reference compound]

1. 32
2. 32
3. 4
4. 32
5. 8

====

test system: H. influenzae; assay: Broth dilution MIC determination (CLSI) against H. influenzae strains; assay type: cell-based; conditions: Haemophilus influenzae, ATCC49247, ATCC49247; read-out: MIC H. influenzae ATCC49247
Can you tell me MIC for the items I'm about to list?
Answers are plain numbers, in µg/mL.

Check out these entries, answers already filled in.
I'd like to know its MIC. The compound in question is CC[C@H]1OC(=O)[C@H](C)C(=O)[C@H](C)[C@@H](O[C@@H]2OC(CN(CCN)CCN)CC(N(C)C)C2O)[C@](C)(OC)C[C@@H](C)CN[C@H](C)[C@H]2N(CCCCn3cc(-c4cccc(N)c4)nn3)C(=O)O[C@]12C (stereo partly drawn)
32

I'd like to know its MIC. The compound in question is CC[C@H]1OC(=O)[C@H](C)C(=O)[C@H](C)[C@@H](O[C@@H]2OC(CNC(=O)c3ccccn3)CC(N(C)C)C2O)[C@](C)(OC)C[C@@H](C)CN[C@H](C)[C@H]2N(CCCCn3cc(-c4cccc(N)c4)nn3)C(=O)O[C@]12C (stereo partly drawn)
2

I would be grateful if you could provide MIC for each of the following entries.
1. CC[C@H]1OC(=O)[C@@](C)(F)C(=O)[C@H](C)[C@@H](O[C@@H]2O[C@H](C)C[C@H](N(C)C)[C@H]2O)[C@](C)(OC)C[C@@H](C)C(=O)[C@H](C)[C@H]2N(CCCCn3cc(-c4cccc(N)c4)nn3)C(=O)O[C@]12C [Solithromycin, solithromycin, reference compound]
2. CC[C@H]1OC(=O)[C@H](C)C(=O)[C@H](C)[C@@H](O[C@@H]2OC(CNC(=N)N)CC(N(C)C)C2O)[C@](C)(OC)C[C@@H](C)CN[C@H](C)[C@H]2N(CCCCn3cc(-c4cccc(N)c4)nn3)C(=O)O[C@]12C (stereo partly drawn)

1. 4
2. 32

I'd like to know its MIC. The compound in question is CC[C@H]1OC(=O)[C@H](C)C(=O)[C@H](C)[C@@H](O[C@@H]2OC(CNC(=O)c3ccccc3)CC(N(C)C)C2O)[C@](C)(OC)C[C@@H](C)CN[C@H](C)[C@H]2N(CCCCn3cc(-c4cccc(N)c4)nn3)C(=O)O[C@]12C (stereo partly drawn)
4

====

Can you tell me MIC for the items I'm about to list?
test system: S. aureus; experiment: Broth dilution MIC determination (CLSI) against S. aureus strains; format: cell-based; conditions: Staphylococcus aureus, ATCC29213, ATCC29213; read-out: MIC S. aureus ATCC29213
Numbers only, in µg/mL.

Check out these entries, answers already filled in.
I'd like to know its MIC. The compound in question is CC[C@H]1OC(=O)[C@H](C)C(=O)[C@H](C)[C@@H](O[C@@H]2OC(CNC(=O)CN)CC(N(C)C)C2O)[C@](C)(OC)C[C@@H](C)CN[C@H](C)[C@H]2N(CCCCn3cc(-c4cccc(N)c4)nn3)C(=O)O[C@]12C (some centres unmarked)
32

I'd like to know its MIC. The compound in question is CC[C@H]1OC(=O)[C@@](C)(F)C(=O)[C@H](C)[C@@H](O[C@@H]2O[C@H](C)C[C@H](N(C)C)[C@H]2O)[C@](C)(OC)C[C@@H](C)C(=O)[C@H](C)[C@H]2N(CCCCn3cc(-c4cccc(N)c4)nn3)C(=O)O[C@]12C [Solithromycin, solithromycin, reference compound]
0.125

I'd like to know its MIC. The compound in question is CC[C@H]1OC(=O)[C@H](C)C(=O)[C@H](C)[C@@H](O[C@@H]2OC(CNC(=O)c3ccccc3)CC(N(C)C)C2O)[C@](C)(OC)C[C@@H](C)CN[C@H](C)[C@H]2N(CCCCn3cc(-c4cccc(N)c4)nn3)C(=O)O[C@]12C (some centres unmarked)
32

I'd like to know its MIC. The compound in question is CC[C@H]1OC(=O)[C@H](C)C(=O)[C@H](C)[C@@H](O[C@@H]2OC(Cn3cc(-c4cnc(N)s4)nn3)CC(N(C)C)C2O)[C@](C)(OC)C[C@@H](C)CN[C@H](C)[C@H]2N(CCCCn3cc(-c4cccc(N)c4)nn3)C(=O)O[C@]12C (some centres unmarked)
4

I'd like to know its MIC. The compound in question is CC[C@H]1OC(=O)[C@H](C)C(=O)[C@H](C)[C@@H](O[C@@H]2OC(CNC(=O)C(Cl)Cl)CC(N(C)C)C2O)[C@](C)(OC)C[C@@H](C)CN[C@H](C)[C@H]2N(CCCCn3cc(-c4cccc(N)c4)nn3)C(=O)O[C@]12C (some centres unmarked)
4

I would be grateful if you could provide MIC for each of the following entries.
1. CC[C@H]1OC(=O)[C@H](C)C(=O)[C@H](C)[C@@H](O[C@@H]2OC(CNC(=O)c3ccccn3)CC(N(C)C)C2O)[C@](C)(OC)C[C@@H](C)CN[C@H](C)[C@H]2N(CCCCn3cc(-c4cccc(N)c4)nn3)C(=O)O[C@]12C (some centres unmarked)
2. CC[C@H]1OC(=O)[C@H](C)C(=O)[C@H](C)[C@@H](O[C@@H]2OC(CNC(=O)c3cnccn3)CC(N(C)C)C2O)[C@](C)(OC)C[C@@H](C)CN[C@H](C)[C@H]2N(CCCCn3cc(-c4cccc(N)c4)nn3)C(=O)O[C@]12C (some centres unmarked)

[8, 8]
